Entries and their Cholesterol-free values follow.
Test system: NCI-H292 lung cancer cells
Test: FDA drug screening, complete media vs cholesterol-free media without statin (TABLE 1)
Type: cell-based, human
Conditions: NCI-H292 cells, cholesterol-free media without statin, FDA drug library screen
Counter-ions that a name gives are not always drawn.
Measured Metric: Cholesterol-free

>>> df
                                   compound   measured_metric  result
0  CC(=O)OCC(=O)[C@@]1(O)CC[C@H]2[C@@H]3CCC4=CC(=O)C=C[C@]4(C)[C@@]3(Cl)[C@@H](Cl)C[C@@]21C [Dichlorisone acetate]  Cholesterol-free  0.8532
1  C[C@]12CC[C@@H]3c4ccc(O)cc4CC[C@H]3[C@@H]1CC[C@@H]2O  Cholesterol-free   0.707
2  COc1cc(C(=O)NCc2ccc(OCCN(C)C)cc2)cc(OC)c1OC [Trimethobenzamide hydrochloride]  Cholesterol-free  0.8254
3                O=C(Nc1ccc(O)cc1)c1ccccc1O  Cholesterol-free   1.209

----------
Test system: NCI-H292 lung cancer cells
Assay: FDA drug screening, complete media vs cholesterol-free media with simvastatin (TABLE 2)
Format: cell-based, human
Conditions: complete media vs cholesterol-free media + simvastatin (0.04 μM); >0 enhanced anti-cancer activity, about 0 neutral, <0 antagonist
Where a name gives a salt, the structure may show the parent alone.
Measured Metric: Difference

>>> print(df.to_string())
                                   compound  measured_metric  result
0  CCCCc1nc(Cl)c(CO)n1Cc1ccc(-c2ccccc2-c2nn[nH]n2)cc1 [Losartan (potassium)]       Difference   −0.21
1                   NCCS(=O)(=O)O [Taurine]       Difference   −0.61
2  CN(C)/N=N/c1[nH]cnc1C(N)=O [Dacarbazine]       Difference   −0.12
3  CCn1cc(C(=O)O)c(=O)c2cc(F)c(N3CCNC(C)C3)c(F)c21 (stereo not drawn) [Lomefloxacin (hydrochloride)]       Difference   −0.72
4      Sc1ncnc2nc[nH]c12 [6-Mercaptopurine]       Difference   −0.14
5  COc1c(N2CCNC(C)C2)c(F)cc2c(=O)c(C(=O)O)cn(C3CC3)c12 (stereo not drawn) [Gatifloxacin (hydrochloride)]       Difference   −0.16
6  c1ccc(CN(CC2=NCCN2)c2ccccc2)cc1 [Antazoline (hydrochloride)]       Difference   −0.19
7  CCc1nc(N)nc(N)c1-c1ccc(Cl)cc1 [Pyrimethamine]       Difference   −0.19
8  O=C(O)CCCN1CCC(O[C@@H](c2ccc(Cl)cc2)c2ccccn2)CC1 [Bepotastine]       Difference   −0.20

----------
Tested on: NCI-H292 lung cancer cells
Experiment: FDA drug screening, complete media vs cholesterol-free media with simvastatin (TABLE 2)
Format: cell-based, human
Settings: complete media vs cholesterol-free media + simvastatin (0.04 μM); […]
Structures can show the parent of a compound that is named as a salt. Peptide text beside a SMILES is read from it.
Measured Metric: Difference

Molecule	Measured Metric	Result
C[C@H]1C(=O)O[C@@H]2CCN3CC=C(COC(=O)[C@](C)(O)[C@]1(C)O)[C@H]23	Difference	−0.16
C[C@]12CC[C@H](O)CC1=CC[C@@H]1[C@@H]2CC[C@]2(C)C(=O)CC[C@@H]12	Difference	−0.30
O=C([O-])[C@H](O)[C@@H](O)[C@H](O)[C@H](O)CO.[Na+] [Gluconate (sodium)]	Difference	−0.42
CCC[S+]([O-])c1ccc2[nH]c(NC(=O)OC)nc2c1 (centres unmarked) [Albendazole sulfoxide]	Difference	−0.25
C[C@H](Oc1cc(-c2cnn(C3CCNCC3)c2)cnc1N)c1c(Cl)ccc(F)c1Cl [(S)-Crizotinib]	Difference	−0.14
C[N+]1(C)[C@@H]2CC[C@H]1C[C@@H](OC(=O)C(O)c1ccccc1)C2.[Br-] (some centres unmarked) [Homatropine (methylbromide)]	Difference	−0.39
CC(O)C(=O)O.CCOc1ccc2nc3cc(N)ccc3c(N)c2c1 [Ethacridine (lactate)]	Difference	−0.10
CC=CC(=O)N(CC)c1ccccc1C	Difference	−0.17
CCC1=C[C@@H]2[C@H](C1)C[C@]2(CN)CC(=O)O	Difference	−0.23
CN(C(=O)/C=C/c1ccoc1)[C@@H]1CC[C@@]2(O)[C@H]3Cc4ccc(O)c5c4[C@@]2(CCN3CC2CC2)[C@H]1O5 [Nalfurafine (hydrochloride)]	Difference	−0.16
NCCCC[C@H](N)C(=O)O.O=C(O)COc1nn(Cc2ccccc2)c2ccccc12	Difference	−0.16
CCNC(=O)[C@@H]1CCCN1C(=O)[C@H](CCCNC(=N)N)NC(=O)[C@H](CC(C)C)NC(=O)CNC(=O)[C@H](Cc1ccc(O)cc1)NC(=O)[C@H](CO)NC(=O)[C@H](Cc1c[nH]c2ccccc12)NC(=O)[C@H](Cc1c[nH]cn1)NC(=O)[C@@H]1CCC(=O)N1 [Fertirelin] (HELM PEPTIDE1{[Glp].H.W.S.Y.G.L.R.P.[CCN[*:1]]}$$$$V2.0)	Difference	−0.23
N#Cc1c(N2C[C@@H]3NCCO[C@H]3C2)c(F)cc2c(=O)c(C(=O)O)cn(C3CC3)c12	Difference	−0.23
CC(=O)[C@@]1(O)CC[C@H]2[C@@H]3CCC4=CC(=O)CC[C@]4(C)[C@H]3CC[C@@]21C [17-Hydroxyprogesterone]	Difference	−0.10

----------
Test system: NCI-H292 lung cancer cells
Test: FDA drug screening, complete media vs cholesterol-free media with simvastatin (TABLE 2)
Assay type: cell-based, human
Settings: complete media vs cholesterol-free media + simvastatin (0.04 μM); >0 enhanced anti-cancer activity, about 0 neutral, <0 antagonist
Where a name gives a salt, the structure may show the parent alone.
Measured Difference values are reported for all entries that follow.
Measured Metric: Difference

Compound	Result
Cc1cccc(Nc2ccccc2C(=O)O)c1C [Mefenamic acid]	−0.12
O.O.O.O.O.O.O.O=C1N=C([O-])CN1/N=C/c1ccc(-c2ccc([N+](=O)[O-])cc2)o1.O=C1N=C([O-])CN1/N=C/c1ccc(-c2ccc([N+](=O)[O-])cc2)o1.[Na+].[Na+] [Dantrolene (sodium hemiheptahydrate)]	−0.35
CCCN(CCC)C(=O)C(CCC(=O)O)NC(=O)c1ccccc1 (centres unmarked) [Proglumide (sodium)]	−0.25
CC(C)OC(=O)C(C)(C)Oc1ccc(C(=O)c2ccc(Cl)cc2)cc1 [Fenofibrate]	−0.24
CC(C)(C)NCC(O)COc1cccc2c1CCC(=O)N2 (centres unmarked) [Carteolol hydrochloride]	−0.24
Cn1nnnc1SCC1=C(C(=O)[O-])N2C(=O)[C@@H](NC(=O)[C@H](O)c3ccccc3)[C@H]2SC1.[Na+] [Cefamandole (sodium)]	−0.74
C[C@@H]1CC(=O)NN=C1c1ccc(NN=C(C#N)C#N)cc1 [Levosimendan]	−0.12
O=S(=O)(O)CCS [Mesna]	−0.10

----------
Test system: NCI-H292 lung cancer cells
Assay: FDA drug screening, complete media vs cholesterol-free media without statin (TABLE 1)
Format: cell-based, human
Conditions: Complete minus Cholesterol-free; greater than 0 enhanced anti-cancer activity, about 0 neutral, below 0 antagonist
Counter-ions that a name gives are not always drawn.
Measured Metric: Difference

Compound	Measured Metric	Result
O=C(O)CCCc1ccccc1	Difference	−0.13
CC(C)NCC(O)COc1ccc(CCOCC2CC2)cc1 (centres unmarked)	Difference	−0.10
CC(=O)OCC(=O)[C@@]12OC3(CCCC3)O[C@@H]1C[C@H]1[C@@H]3CCC4=CC(=O)C=C[C@]4(C)[C@@]3(F)[C@@H](O)C[C@@]12C [Amcinonide]	Difference	−0.16
C[C@H]1O[C@H](O[C@H]2[C@H](O)[C@@H](O)[C@@H](O[C@H]3[C@H](O)[C@@H](O)C(O)O[C@@H]3CO)O[C@@H]2CO)[C@H](O)[C@@H](O)[C@@H]1N[C@H]1C=C(CO)[C@@H](O)[C@H](O)[C@H]1O (some centres unmarked)	Difference	−0.13
CS(=O)(=O)c1cccc(C[C@H](NC(=O)c2c(Cl)cc3c(c2Cl)CCN(C(=O)c2ccc4ccoc4c2)C3)C(=O)O)c1	Difference	−0.15
Cc1cnc(Nc2ccc(OCCN3CCCC3)cc2)nc1Nc1cccc(S(=O)(=O)NC(C)(C)C)c1 [Fedratinib (hydrochloride hydrate)]	Difference	−0.13
O=C(O)CCc1nc(-c2ccccc2)c(-c2ccccc2)o1	Difference	−0.11
C=CCN1CCc2nc(N)sc2CC1 [Talipexole dihydrochloride]	Difference	−0.09
COc1cc2nc(N(C)CCCNC(=O)C3CCCO3)nc(N)c2cc1OC (centres unmarked)	Difference	−0.14
[H]/N=C(/N)N/C(=N/[H])NCCc1ccccc1 [Phenformin (hydrochloride)]	Difference	−0.12
N=C(N)NC(=O)c1nc(Cl)c(N)nc1N [Amiloride (hydrochloride)]	Difference	−0.17
CC(=O)NS(=O)(=O)c1ccc(N)cc1 [Sulfacetamide]	Difference	−0.14
CCS(=O)(=O)CCn1c([N+](=O)[O-])cnc1C	Difference	−0.13
CC(C)(C)NCC(O)CSc1nc(-c2ccc(C(N)=O)s2)cs1 (centres unmarked)	Difference	−0.18
N#Cc1ccc(Oc2ccc3c(c2)COB3O)cc1	Difference	−0.14
CCN(CC)C(=O)c1cccnc1 [Nikethamide]	Difference	−0.18
O=c1cc[nH]c(=O)[nH]1	Difference	−0.17
